Entries and their IC50 values follow.
target: partially purified telomerase from a nuclear extract of HEK293 cells (Homo sapiens); construct: partially purified telomerase from a nuclear extract of HEK293 cells; endogenous in cells; host or cells: HEK293 cells, nuclear extract, partially purified; assay: In vitro telomerase inhibition, membrane hybridization method (U.S. Pat. No. 5,760,062); format: biochemical; details: partially purified telomerase from nuclear extract of HEK293 cells
Only the number, expressed in µM, is required.

Answered cases to consult:
O=C1NC(=O)C(=Cc2cc([N+](=O)[O-])ccc2Sc2ccc3ccccc3c2)S1
7.2
O=C1NC(=O)/C(=C/c2cc([N+](=O)[O-])ccc2[S+]([O-])c2ccc(Cl)cc2)S1 (centres unmarked)
2.7

Q. Entry `O=C1NC(=O)C(=Cc2cc([N+](=O)[O-])ccc2SCc2ccc(Cl)cc2)S1` has what IC50?
A. 3.5

Q. Entry `O=C1NC(=O)C(=Cc2ccc(C(O)(c3ccccc3)c3ccccc3)cc2)S1` has what IC50?
A. 5.5

Q. Entry `O=C1NC(=O)/C(=C/c2c3ccccc3c(Sc3ccc(Cl)cc3)c3ccccc23)S1` has what IC50?
A. 2.6

Q. Entry `Cc1ccc(Sc2ccc(C=C3SC(=O)NC3=O)cc2[N+](=O)[O-])cc1` has what IC50?
A. 8.3

Q. Entry `O=C1NC(=O)C(=Cc2ccc(N(c3ccccc3)c3ccccc3)cc2)S1` has what IC50?
A. 4.2

Q. Entry `Cc1ccc(Sc2ccc(Cl)cc2C=C2SC(=O)NC2=O)cc1` has what IC50?
A. 4.5

====

target: partially purified telomerase from a nuclear extract of HEK293 cells (Homo sapiens, UniProt O14746); construct: partially purified telomerase from a nuclear extract of HEK293 cells; endogenous in cells; host or cells: HEK293 cells, nuclear extract, partially purified; experiment: In vitro telomerase inhibition, membrane hybridization method (U.S. Pat. No. 5,760,062); assay type: biochemical; conditions: partially purified telomerase from nuclear extract of HEK293 cells
Sequence (O14746 whole entry): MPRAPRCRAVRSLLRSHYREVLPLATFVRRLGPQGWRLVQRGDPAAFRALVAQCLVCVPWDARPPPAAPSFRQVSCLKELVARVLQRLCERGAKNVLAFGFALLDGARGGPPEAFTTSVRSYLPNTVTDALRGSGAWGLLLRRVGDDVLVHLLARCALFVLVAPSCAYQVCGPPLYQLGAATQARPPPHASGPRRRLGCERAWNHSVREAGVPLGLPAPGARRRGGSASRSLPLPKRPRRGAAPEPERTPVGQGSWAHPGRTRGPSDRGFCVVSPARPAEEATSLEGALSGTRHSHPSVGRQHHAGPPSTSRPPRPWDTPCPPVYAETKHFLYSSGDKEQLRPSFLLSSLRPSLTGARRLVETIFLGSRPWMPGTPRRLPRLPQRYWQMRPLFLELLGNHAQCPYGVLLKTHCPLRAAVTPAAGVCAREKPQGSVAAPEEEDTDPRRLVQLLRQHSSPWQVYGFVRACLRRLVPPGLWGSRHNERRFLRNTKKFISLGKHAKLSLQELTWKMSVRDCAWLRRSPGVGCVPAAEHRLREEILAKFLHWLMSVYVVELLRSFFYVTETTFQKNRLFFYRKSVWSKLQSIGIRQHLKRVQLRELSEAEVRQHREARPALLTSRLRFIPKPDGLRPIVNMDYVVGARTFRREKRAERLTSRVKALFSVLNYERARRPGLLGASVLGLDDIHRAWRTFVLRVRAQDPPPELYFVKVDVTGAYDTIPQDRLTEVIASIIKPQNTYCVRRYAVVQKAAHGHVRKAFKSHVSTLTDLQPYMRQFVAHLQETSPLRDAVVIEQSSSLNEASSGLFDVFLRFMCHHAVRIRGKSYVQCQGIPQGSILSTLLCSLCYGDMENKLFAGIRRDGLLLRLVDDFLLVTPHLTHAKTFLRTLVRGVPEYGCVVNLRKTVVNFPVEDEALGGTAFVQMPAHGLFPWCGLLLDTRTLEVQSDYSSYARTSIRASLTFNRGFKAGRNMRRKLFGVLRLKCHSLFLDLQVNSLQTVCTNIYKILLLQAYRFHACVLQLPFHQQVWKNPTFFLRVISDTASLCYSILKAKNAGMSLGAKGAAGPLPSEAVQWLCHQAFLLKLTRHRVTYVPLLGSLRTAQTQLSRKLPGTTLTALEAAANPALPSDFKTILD
Sequence (O60832 whole entry partner): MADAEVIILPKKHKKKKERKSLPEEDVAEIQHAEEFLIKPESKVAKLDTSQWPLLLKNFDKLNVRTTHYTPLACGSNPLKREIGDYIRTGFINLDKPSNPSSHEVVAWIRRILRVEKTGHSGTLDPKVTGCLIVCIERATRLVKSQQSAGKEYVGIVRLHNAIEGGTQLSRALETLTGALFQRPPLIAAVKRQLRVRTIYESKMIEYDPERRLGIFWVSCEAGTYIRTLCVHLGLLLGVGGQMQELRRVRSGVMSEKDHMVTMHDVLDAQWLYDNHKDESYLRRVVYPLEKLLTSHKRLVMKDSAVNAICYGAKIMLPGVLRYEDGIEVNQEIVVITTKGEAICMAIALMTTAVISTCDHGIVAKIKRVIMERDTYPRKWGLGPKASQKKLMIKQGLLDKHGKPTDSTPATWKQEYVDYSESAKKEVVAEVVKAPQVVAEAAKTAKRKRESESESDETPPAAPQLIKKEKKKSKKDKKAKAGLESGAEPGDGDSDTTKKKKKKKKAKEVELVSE
Sequence (Q9NPE3 whole entry partner): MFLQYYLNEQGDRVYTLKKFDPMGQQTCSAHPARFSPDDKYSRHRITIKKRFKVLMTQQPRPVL
Sequence (Q9NX24 whole entry partner): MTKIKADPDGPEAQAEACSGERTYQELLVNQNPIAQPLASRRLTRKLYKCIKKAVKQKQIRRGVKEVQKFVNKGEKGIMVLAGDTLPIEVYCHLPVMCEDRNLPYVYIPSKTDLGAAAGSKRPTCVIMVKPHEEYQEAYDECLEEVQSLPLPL
Sequence (Q9NY12 whole entry partner): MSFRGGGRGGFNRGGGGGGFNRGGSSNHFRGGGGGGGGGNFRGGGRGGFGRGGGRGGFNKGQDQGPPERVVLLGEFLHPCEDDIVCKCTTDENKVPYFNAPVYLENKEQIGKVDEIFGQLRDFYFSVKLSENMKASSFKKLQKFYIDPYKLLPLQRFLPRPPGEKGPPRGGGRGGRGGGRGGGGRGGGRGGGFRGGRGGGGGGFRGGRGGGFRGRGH
observable: IC50

Answered cases to consult:
Cc1ccc(COc2ccc(-c3cccs3)cc2C=C2SC(=O)NC2=O)cc1 [Compound 48]
1.6 µM
O=C1NC(=O)C(=Cc2cc([N+](=O)[O-])ccc2Sc2cccc(Cl)c2)S1 [Compound 70]
4.8 µM
CCN(CC)C(=O)c1cc(C=C2SC(=O)NC2=O)c(Sc2ccc(Cl)cc2)s1 [Compound 54]
7.4 µM

Next molecule, IC50 to be filled in.
Q. Entry Cc1ccc(COc2ccc(-c3ccccc3)cc2C=C2SC(=O)NC2=O)cc1 [Compound 47] has what IC50?
A. 4.1 µM

====

target: telomerase in human renal carcinoma cell line ACHN (Homo sapiens); construct: human renal carcinoma cell line ACHN for 3 days, and then a cell extract was prepared; endogenous in cells; host or cells: ACHN human renal carcinoma cells; CHAPS extract after 3 days of treatment; assay: Telomerase activity in extract of agent-treated ACHN cells (TRAP assay); assay type: cell-based; conditions: contact 3 days, concentration 30 μM
Sequence (O14746 whole entry): as the sequence (O14746 whole entry) above
Sequence (O60832 whole entry partner): as the sequence (O60832 whole entry partner) above
Sequence (Q9NPE3 whole entry partner): as the sequence (Q9NPE3 whole entry partner) above
Sequence (Q9NX24 whole entry partner): as the sequence (Q9NX24 whole entry partner) above
Sequence (Q9NY12 whole entry partner): as the sequence (Q9NY12 whole entry partner) above
observable: Residual Enzyme Activity (%)
I'd appreciate it if you included the unit after the number.

Cc1ccc(COc2ccc([N+](=O)[O-])c(C=C3SC(=O)NC3=O)c2)cc1 [Compound 21]
35%
Cc1ccc(Sc2ccc(-c3ccccn3)cc2C=C2SC(=O)NC2=O)cc1 [Compound 89]
2%

Next compound, Residual Enzyme Activity (%) to be filled in.
Q. Field: Residual Enzyme Activity (%) (telomerase in human renal carcinoma cell line ACHN (Homo sapiens)). Entry: Cc1ccc(Sc2ccc([N+](=O)[O-])cc2C=C2SC(=O)NC2=O)cc1 [Compound 1]
A. 11%
